assay: Human HepG2 cell viability assay in 384 well format; format: toxicity, cell-based; parameters: dose 125 nL, time 70.5 hour; concentration not given beside the values; details: HepG2 cells, read-out: Inhibition
For each record, write down the corresponding cytotoxicity at 70.5 h.
One number for each entry, in %.

// below: answered compounds
Compound: O=C(c1ccco1)N1CCC12CCN(c1ncc(F)cn1)CC2
cytotoxicity at 70.5 h / %: 0.431
//
Compound: Fc1ccc(CN2CCOCC3(CCN(Cc4nccs4)C3)C2)cc1 (stereo not drawn)
cytotoxicity at 70.5 h / %: -1.05
//
Compound: CC(=O)Nc1nc(C(=O)NC(C)c2ccc(F)c(F)c2)cs1 (stereo not drawn)
cytotoxicity at 70.5 h / %: -7.42
//
Compound: Cc1c(Br)cnn1CC(=O)Nc1ccon1
cytotoxicity at 70.5 h / %: -7.55
//
Compound: CC(C)N1CCC(C(=O)N2CCC(C(O)c3nccn3C)CC2)CC1 (stereo not drawn)
cytotoxicity at 70.5 h / %: -11.2
//
Compound: CCc1nc(C)ncc1C(=O)N1CCOC(c2nc(C)n[nH]2)C1 (stereo not drawn)
cytotoxicity at 70.5 h / %: -0.337

Give me cytotoxicity at 70.5 h for each of these compounds, listed below.
1. CC(C)(C)OC(=O)N[C@H]1CCN(c2cncc(Br)c2)C1
2. NC(=O)c1ccc(C(=O)N2CCCCC2C2OCCO2)cc1 (stereo not drawn)
3. N#Cc1c(F)cccc1N1CCCC(C(=O)Nc2nncs2)C1 (stereo not drawn)
4. COc1ccc(CNc2n[nH]c(C)n2)cc1
5. CC(=O)N1CCC(CCNC(C)Cc2ccc(F)cc2)CC1 (stereo not drawn)
6. CCC(C)NC(=O)c1cc(S(=O)(=O)N(C)C)c(C)s1 (stereo not drawn)
7. COCCNC(=O)CCC1CCN(Cc2cccc(SC)c2)CC1

1. 23.7
2. -10.6
3. -16.9
4. -11.8
5. -13.1
6. -4.34
7. 5.26

---

test: Human HepG2 cell viability assay in 384 well format; format: toxicity, cell-based; parameters: dose 125 nL, time 70.5 hour; concentration not given beside the values; conditions: HepG2 cells, read-out: Inhibition
Measured endpoint: cytotoxicity at 70.5 h

// below: answered compounds
Compound: CCOC(C)C(=O)NCc1ccc(N(C)C)cc1 (stereo unspecified)
Data value: -10.8%
--
Compound: c1ccc(CCc2n[nH]c(C3CCOC3)n2)cc1 (stereo unspecified)
Data value: -10.1%
--
Compound: Cc1nn(COc2cccc(F)c2)c(C)c1NC(=O)C1CC1
Data value: 2.57%
--
Compound: COC(=O)c1cccc(C(=O)N2CCN(c3cc(Cl)ccc3C)CC2)n1
Data value: -2.22%
--
Compound: O=S1(=O)NCC2(CCN(Cc3ccncc3)CC2)Oc2ncccc21
Data value: 23.1%

Kindly note the recorded cytotoxicity at 70.5 h for CN(Cc1ccsc1)C(=O)Nc1ccc(S(=O)(=O)N(C)C)cc1 , which is 3.55%

---

experiment: Human HepG2 cell viability assay in 384 well format; assay type: toxicity, cell-based; design: dose 125 nL, time 70.5 hour; concentration not given beside the values; conditions: HepG2 cells, read-out: Inhibition
Measured endpoint: cytotoxicity at 70.5 h (%)
Give bare numbers, in %.

// below: answered compounds
Compound: O=C(c1n[nH]cc1Cl)N1CCCC(n2nnc3cc(F)ccc32)C1 (centres undefined)
Data value: -5.16
//
Compound: CCNC(=O)c1ccoc1CN1c2ccccc2CC1C (centres undefined)
Data value: -5.21

Give me cytotoxicity at 70.5 h for each of these compounds, listed below.
1. CC(C)(C)c1cn2c(n1)C(CNCc1ccccn1)CCC2 (centres undefined)
2. COc1ccc(-n2cccn2)c(CN2CCC(O)(CO)CC2)c1
3. CCOc1ccc(S(=O)(=O)NCCc2ccc(N(C)C)cc2)cc1F
4. O=C(C1=CC2(CCNCC2)c2ccccc21)N1CCCC1
5. O=C(NCCc1ccccn1)N1CCOC(c2ccccc2Cl)C1 (centres undefined)
6. COc1ccc(NC(=O)N(CC2CCOC2)C2CC2)cn1 (centres undefined)

1. 70.8
2. -11.1
3. -1.54
4. -14.7
5. -5.38
6. -6.27

Give me cytotoxicity at 70.5 h for each of these compounds, listed below.
1. O=C1CCCc2cc(S(=O)(=O)NCc3ccccn3)ccc2N1
2. COCCCN1CCN(c2ncnc3nc(C)cc(C)c23)CC1
3. Cc1ocnc1C(=O)N1CC[C@@H](O)[C@@H](O)[C@H](N2CCC(F)(F)CC2)C1
4. Cc1ccc(OCCN(C)C(=O)CCCN2CCCC2=O)c(C)c1
5. COCCNC(=O)CCNC(=O)c1ccc(N2CCC(C)=N2)cc1
6. CN1[C@@H](c2ccccc2)[C@@H](C(=O)NCc2ccccn2)C[C@@]1(C)C(=O)O

1. -11
2. -4.17
3. -3.42
4. -5.15
5. -16
6. 23
